Data origin, for the record: patent US11946041B2

# assayed system: CCR4 (Homo sapiens)
# Construct: host or cells: CHO-K1
# Sequence (P51679 1-360): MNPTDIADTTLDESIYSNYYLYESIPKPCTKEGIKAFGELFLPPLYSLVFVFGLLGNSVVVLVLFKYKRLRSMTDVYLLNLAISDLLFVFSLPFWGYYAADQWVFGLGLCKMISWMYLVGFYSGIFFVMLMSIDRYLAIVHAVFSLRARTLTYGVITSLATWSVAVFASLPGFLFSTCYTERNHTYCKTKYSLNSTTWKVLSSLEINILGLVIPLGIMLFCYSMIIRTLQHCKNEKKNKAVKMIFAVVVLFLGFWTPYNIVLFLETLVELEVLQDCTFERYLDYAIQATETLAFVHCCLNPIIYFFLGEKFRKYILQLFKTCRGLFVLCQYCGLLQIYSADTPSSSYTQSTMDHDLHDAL
# method summary: PathHunter eXpress CCR4 CHO-K1 β-Arrestin GPCR Assay, agonist format
# Type: cell-based
# condition info: high concentration, 0.6 uM
I'd be grateful if you could share measured Raw Data for these entries.
One number for each entry.

Here is how some sequences turned out for Raw Data.
| biosequence | Raw Data |
| --- | --- |
| ACPLMSSVNCTAGCA [24-13-00-N001, bicyclic peptide ligand, TBMB scaffold, from CCR4 cell-based selection] | 12989 |
| ACQLTCLTPARQPGCA [24-14-00-N001, bicyclic peptide ligand, TATA scaffold, from CCR4 cell-based selection] | 12839 |
| ACLSCARHGNQCA [24-12-00-N001, bicyclic peptide ligand, TATA scaffold, from CCR4 cell-based selection] | 13041 |

Identify the measured Raw Data of ACQTLCNTAEDIRCA [24-16-00-N001, bicyclic peptide ligand, TBMB scaffold, from CCR4 cell-based selection] for CCR4 (Homo sapiens). 14951
